Hey, just so you know, these numbers are from the supplement of paper PMC10567573.

assay: protein stability index of a GFP-peptide fusion (GPS, HEK-293T) (PSI 1-6); higher = more stable; conditions: treatment: MLN4924 1 uM, 8 h; c terminus: a fixed tail appended;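 note: 24-mer peptide tiles fused after GFP, lentivirally expressed, FACS-sorted into six equal bins by GFP/DsRed ratio, decoded by Illumina sequencing, PSI is the read-weighted mean bin number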
property name: protein stability index
Give bare numbers.

Take a look at these entries with their results.
- sequence string: "ARYYLVQGLIEDCQLALQQKRETL [KCTD13]"
  measured: 2.19
- sequence string: "LIKNNSLPRKRQSLRSSSSKLAQL [INTS3]"
  measured: 3.31
- sequence string: "SQLDSGVSQAVEGPEELSRSSSES [RIPK4]"
  measured: 5.54
- sequence string: "LALKLPDGSYALNGEYTLMPSPTD [ADAMTS4]"
  measured: 2.41
- sequence string: "NKAAVMVHQLSKKEASRHAIMRSP [CTNNB1]"
  measured: 3.8

Please go through the list and note protein stability index for each sequence.
1. DWYQKQTPTSPECDYSQYFKTIEE [KRT15]
2. DSLAKEIQYLKDLIEEVRKARGKK [ATF4]
3. KLDFKEKAQAKVGSLDNAHHVPGG [MAP2]
4. ACIVVLDRTSHRLHTANLGDSGFL [PPTC7]
5. QKHYVYGPLPQSFDKEWVAKQTKR [COX4I1]
6. PIYGLRQSILLNTRLQDCYVDSPA [C22orf31]

1. 3.97
2. 2.14
3. 4.7
4. 2.24
5. 3.7
6. 2.55

Please go through the list and note protein stability index for each sequence.
1. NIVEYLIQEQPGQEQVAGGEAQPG [FEM1A]
2. SVNTHDYAKVKEFIVDILQFLDIG [MATN2]
3. GNKCDLEDERVVGKEQGQNLARQW [RAP1B]
4. DDMPIGRNVLELNDVRQSANYTCV [PTPRD]
5. ACGSSSYVASIVDGGESRSEKGDS [RBMY1A1]
6. RLKEYTIKSHSSLPPNNSYADFER [DAPK3]
7. VHPFVNYNSSRFGEGVERELFVRE [MYORG]
8. KLMKNIRFPLMTPQELINYVQTVD [KLHL13]

1: 4.15; 2: 2.05; 3: 4.73; 4: 3.77; 5: 5.16; 6: 3.61; 7: 3; 8: 2.82

Please go through the list and note protein stability index for each sequence.
1. LGSPQHSPSTRGSPNRSLPSPGVL [ATF4]
2. LQDLALQGAKERAHQQKKHSGFED [CHGA]
3. EETRVWHRRDGKWQNVHFHCSGAP [CAMK2B]
4. VLALADEAGYYFFNGNYKVDSPKN [ADAMTSL2]
5. SLDISGHMILENCSISKMEEEAGQ [ZER1]

1. 4.45
2. 5.06
3. 3.11
4. 2.86
5. 4.68

Please go through the list and note protein stability index for each sequence.
1. PKQSGSFRYLQGMLEAGEGGDWPG [PDLIM4]
2. CEALINRVSAMRDYRGPDCRYLNF [MIA2]
3. CASKYGRDWERYTAAVPYRLLPGI [DHCR7]

3.96
2.53
2.2
